Cited source for all entries: paper PMC10709440

Entries and their measured activation at 1 µM follow.
- system: Drosophila OR10a (Drosophila melanogaster, UniProt Q9VYZ1)
- Construct: expressed in transfected cells
- Sequence (Q9VYZ1 1-406): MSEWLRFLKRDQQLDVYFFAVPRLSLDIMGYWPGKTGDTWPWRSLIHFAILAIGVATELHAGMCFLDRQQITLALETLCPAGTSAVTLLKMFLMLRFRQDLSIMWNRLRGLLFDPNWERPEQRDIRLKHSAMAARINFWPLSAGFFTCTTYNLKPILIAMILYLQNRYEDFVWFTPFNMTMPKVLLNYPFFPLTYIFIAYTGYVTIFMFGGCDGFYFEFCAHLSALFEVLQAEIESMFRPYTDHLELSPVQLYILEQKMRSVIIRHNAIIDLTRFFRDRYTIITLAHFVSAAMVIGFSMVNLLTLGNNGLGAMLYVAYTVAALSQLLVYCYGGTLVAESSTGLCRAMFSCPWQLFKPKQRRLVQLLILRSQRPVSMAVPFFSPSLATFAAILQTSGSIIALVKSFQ
- Sequence (Q9VNB5 1-486 partner): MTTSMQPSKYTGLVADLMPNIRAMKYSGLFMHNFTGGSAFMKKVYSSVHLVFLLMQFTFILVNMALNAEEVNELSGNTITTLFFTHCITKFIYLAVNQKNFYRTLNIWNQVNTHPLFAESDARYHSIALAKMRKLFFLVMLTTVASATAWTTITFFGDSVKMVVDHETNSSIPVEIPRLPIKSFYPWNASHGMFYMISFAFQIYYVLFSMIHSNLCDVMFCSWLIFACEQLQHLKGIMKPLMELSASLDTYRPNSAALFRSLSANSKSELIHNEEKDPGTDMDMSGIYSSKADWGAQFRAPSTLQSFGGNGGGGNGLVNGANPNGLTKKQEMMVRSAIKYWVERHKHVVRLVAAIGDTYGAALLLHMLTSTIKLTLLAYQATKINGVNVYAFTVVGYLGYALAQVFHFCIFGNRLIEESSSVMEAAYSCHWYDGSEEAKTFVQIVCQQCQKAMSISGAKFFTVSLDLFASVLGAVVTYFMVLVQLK
- assay-details: Calcium ion fluorescence (GCaMP6) assay, OR10a stable HEK293 cell line
- Assay type: cell-based
- recorded-conditions: HEK293, read-out: OR10a Average response (VUAA1-normalized), 1 μM VOC; 50 μM VUAA1 = 1; responses not exceeding 0.05 considered 0
result-type: activation at 1 µM (%)

# molecule, system, data-value
data = [
    ("CC(=O)OCC(C)C [isobutyl acetate]", "Drosophila OR10a (Drosophila melanogaster, UniProt Q9VYZ1)", 7),
    ("CCCCC(C)=O [2-hexanone]", "Drosophila OR10a (Drosophila melanogaster, UniProt Q9VYZ1)", 10),
    ("C=C1CCC2CC1C2(C)C (stereo not drawn) [beta-pinene]", "Drosophila OR10a (Drosophila melanogaster, UniProt Q9VYZ1)", 2.77),
    ("CCCCOC(C)=O [butyl acetate]", "Drosophila OR10a (Drosophila melanogaster, UniProt Q9VYZ1)", 3),
    ("CC1=CCC2C(C1)C2(C)C (stereo not shown) [3-carene]", "Drosophila OR10a (Drosophila melanogaster, UniProt Q9VYZ1)", 7),
    ("C=C1CC[C@H]2O[C@]2(C)CC[C@@H]2[C@@H]1CC2(C)C [(-)-caryophyllene oxide]", "Drosophila OR10a (Drosophila melanogaster, UniProt Q9VYZ1)", 0),
    ("CC1=CCC2CC1C2(C)C (stereo not drawn) [alpha-pinene]", "Drosophila OR10a (Drosophila melanogaster, UniProt Q9VYZ1)", 5),
    ("Cc1ccc(C)cc1 [p-xylene]", "Drosophila OR10a (Drosophila melanogaster, UniProt Q9VYZ1)", 0),
    ("Cc1ccc(C(C)C)cc1 [p-cymene]", "Drosophila OR10a (Drosophila melanogaster, UniProt Q9VYZ1)", 0),
    ("Cc1ccccc1C [o-xylene]", "Drosophila OR10a (Drosophila melanogaster, UniProt Q9VYZ1)", 0),
    ("CC1=CC[C@@H](C(C)(C)O)CC1 [alpha-terpineol]", "Drosophila OR10a (Drosophila melanogaster, UniProt Q9VYZ1)", 3.64),
    ("C=C1CCC2(C(C)C)CC12 (stereo not shown) [sabinene]", "Drosophila OR10a (Drosophila melanogaster, UniProt Q9VYZ1)", 0),
    ("CCOC(=O)c1ccccc1 [ethyl benzoate]", "Drosophila OR10a (Drosophila melanogaster, UniProt Q9VYZ1)", 29),
    ("C=Cc1ccccc1 [styrene]", "Drosophila OR10a (Drosophila melanogaster, UniProt Q9VYZ1)", 3),
    ("Cc1ccccc1 [toluene]", "Drosophila OR10a (Drosophila melanogaster, UniProt Q9VYZ1)", 3),
    ("Cc1cccc(C)c1 [m-xylene]", "Drosophila OR10a (Drosophila melanogaster, UniProt Q9VYZ1)", 0),
]

* * *

The following compounds are listed with their measured OR85b response (VUAA1-normalized) at 1 μM values.
- system: Drosophila OR85b (Drosophila melanogaster, UniProt Q9VHQ7)
- Construct: expressed in transfected cells
- Sequence (Q9VHQ7 whole entry, one chain of several): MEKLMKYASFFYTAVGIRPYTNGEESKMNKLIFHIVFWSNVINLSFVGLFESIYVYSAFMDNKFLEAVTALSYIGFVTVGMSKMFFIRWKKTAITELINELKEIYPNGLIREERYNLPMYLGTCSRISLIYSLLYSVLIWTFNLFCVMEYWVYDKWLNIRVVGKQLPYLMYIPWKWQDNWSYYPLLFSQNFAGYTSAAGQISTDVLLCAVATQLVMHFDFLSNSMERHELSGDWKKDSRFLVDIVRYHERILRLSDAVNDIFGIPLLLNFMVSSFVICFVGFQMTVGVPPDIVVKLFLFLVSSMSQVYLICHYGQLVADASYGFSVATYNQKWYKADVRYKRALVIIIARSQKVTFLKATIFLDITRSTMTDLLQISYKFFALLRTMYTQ
- assay-details: Calcium ion fluorescence (GCaMP6) assay, OR85b stable HEK293 cell line
- Assay type: cell-based
- recorded-conditions: OR85b cell line, VOC concentration 1 μM
result-type: OR85b response (VUAA1-normalized) at 1 μM

# compound, data-value
data = [
    ("CCCCCCCCCCCCCC [tetradecane]", 0.10),
    ("Cc1ccccc1C [o-xylene]", 0.08),
    ("CC/C=C\\CCO [Z-3-hexenol]", 0.0533),
    ("C=CC(C)(O)CCC=C(C)C (stereo not shown) [linalool]", 0.00),
    ("Cc1cccc(C)c1 [m-xylene]", 0.00),
    ("C=C1CCC2(C(C)C)CC12 (stereo not shown) [sabinene]", 0.0647),
    ("CC1=CCC23CC1C(C)(C)C2CCC3C (stereo not drawn) [α-funebrene]", 0.10),
    ("CCCOC(C)=O [propyl acetate]", 0.0538),
    ("CCCCCCCCC=O [nonanal]", 0.00),
    ("COC(=O)c1ccccc1O [methyl salicylate]", 0.00),
    ("CCCCCOC(C)=O [pentyl acetate]", 0.00),
    ("OCCc1ccccc1 [phenethyl alcohol]", 0.10),
    ("CCCCCCCCCCC [undecane]", 0.00),
    ("COC(=O)c1ccccc1 [methyl benzoate]", 0.00),
    ("CC/C=C\\CCOC(C)=O [Z-3-hexenyl acetate]", 0.15),
    ("Cc1ccccc1 [toluene]", 0.0843),
    ("Cc1ccc(C)cc1 [p-xylene]", 0.00),
    ("C=Cc1ccccc1 [styrene]", 0.00),
    ("Cc1ccc(C(C)C)cc1 [p-cymene]", 0.00),
]

* * *

- system: Drosophila OR71a (Drosophila melanogaster, UniProt Q9VUK5)
- Construct: expressed in transfected cells
- Sequence (Q9VUK5 whole entry, one chain of several): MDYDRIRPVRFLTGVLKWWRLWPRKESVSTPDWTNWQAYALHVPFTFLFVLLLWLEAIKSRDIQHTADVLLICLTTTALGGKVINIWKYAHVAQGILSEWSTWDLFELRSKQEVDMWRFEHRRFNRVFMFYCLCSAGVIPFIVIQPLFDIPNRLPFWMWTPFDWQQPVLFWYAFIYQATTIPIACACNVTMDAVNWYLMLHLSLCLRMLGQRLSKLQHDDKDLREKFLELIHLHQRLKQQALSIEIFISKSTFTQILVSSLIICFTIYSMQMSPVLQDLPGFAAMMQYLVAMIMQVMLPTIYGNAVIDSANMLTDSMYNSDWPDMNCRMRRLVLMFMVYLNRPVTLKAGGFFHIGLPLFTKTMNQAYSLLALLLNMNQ
- assay-details: Calcium ion fluorescence (GCaMP6) assay, OR71a stable HEK293 cell line
- Assay type: cell-based
- recorded-conditions: OR71a cell line; cc. 100 µM; VUAA1-normalized response, mean of biological replicates
result-type: Average response

# molecule, result-type, data-value
data = [
    ("CC(=O)c1ccccc1", "Average response", 0.00),
    ("OCCc1ccccc1", "Average response", 0.0218),
    ("C=C(C)C1CCC2(C)OC2C1 (single isomer, unassigned; (+)) [(+)-limonene oxide]", "Average response", 0.00),
    ("CC1=CCC23CC1C(C)(C)C2CCC3C (stereo not drawn)", "Average response", 0.00),
    ("CCCCCCCCC=O", "Average response", 0.00),
    ("CC/C=C/CCO", "Average response", 0.0275),
    ("CCCCC(C)=O", "Average response", 0.00),
    ("Cc1ccc(C)c(C)c1", "Average response", 0.00),
    ("CC/C=C\\CCOC(C)=O [z3-hexenyl acetate]", "Average response", 0.00),
    ("CC1=CCC2C(C1)C2(C)C (stereo not drawn)", "Average response", 0.00),
    ("CCCCCC(=O)OCC [ethyl hexanoate]", "Average response", 0.00),
    ("CCCCCCCO", "Average response", 0.00),
]

* * *

- system: Drosophila OR47a (Drosophila melanogaster, UniProt P81921)
- Construct: expressed in transfected cells
- Sequence (P81921 whole entry, one chain of several): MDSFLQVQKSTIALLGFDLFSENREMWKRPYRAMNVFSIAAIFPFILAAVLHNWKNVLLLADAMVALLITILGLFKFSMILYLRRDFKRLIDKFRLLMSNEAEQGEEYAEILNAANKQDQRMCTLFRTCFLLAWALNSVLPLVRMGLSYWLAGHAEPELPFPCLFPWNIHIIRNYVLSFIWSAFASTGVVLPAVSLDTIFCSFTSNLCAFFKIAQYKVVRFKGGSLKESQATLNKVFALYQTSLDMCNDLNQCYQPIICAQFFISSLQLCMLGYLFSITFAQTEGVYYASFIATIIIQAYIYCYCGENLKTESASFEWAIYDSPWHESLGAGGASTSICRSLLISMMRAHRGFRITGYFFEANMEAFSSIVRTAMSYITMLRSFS
- assay-details: Calcium ion fluorescence (GCaMP6) assay, OR47a stable HEK293 cell line
- Assay type: cell-based
- recorded-conditions: OR47a cell line; odorant cc. 100 µM; mean of biological replicates
Recorded Average response, one value per entry.
result-type: Average response

# molecule, result-type, data-value
data = [
    ("CC1=CCC23CC1C(C)(C)C2CCC3C (stereo not drawn) [α-funebrene]", "Average response", 0.00),
    ("C=C1CC/C=C(\\C)CC[C@@H]2[C@@H]1CC2(C)C [(-)-trans-caryophyllene]", "Average response", 0.00),
    ("C=C(C)C1CCC2(C)OC2C1 (single isomer, unassigned; (+)) [(+)-limonene oxide]", "Average response", 0.00),
    ("CCCCCCCCCC=O [decanal]", "Average response", 0.00),
    ("CCOC(=O)c1ccccc1 [ethyl benzoate]", "Average response", 0.10),
    ("Cc1ccc(C(C)C)cc1 [p-cymene]", "Average response", 0.00),
    ("CCCCCCCCCCCCCC [tetradecane]", "Average response", 0.00),
    ("Cc1ccccc1 [toluene]", "Average response", 0.00),
    ("CC1=CCC[C@@]2(C)[C@@H]3CC[C@]12CC3(C)C [(−)-α-neoclovene]", "Average response", 0.018),
    ("CCCCCCCCC=O [nonanal]", "Average response", 0.00),
    ("CCCC(=O)OCC [ethyl butyrate]", "Average response", 0.0448),
    ("CC1=CC[C@@H](C(C)(C)O)CC1 [alpha-terpineol]", "Average response", 0.00),
    ("CCCCCC(C)O (centres unmarked) [2-heptanol]", "Average response", 0.00),
    ("CCCCCC(C)=O [2-heptanone]", "Average response", 0.46),
    ("C=CC(O)C/C=C\\CC (centres unmarked) [(5Z)-octa-1,5-dien-3-ol]", "Average response", 0.00),
    ("O=Cc1ccccc1 [benzaldehyde]", "Average response", 0.00),
    ("C=C1CC[C@H]2O[C@]2(C)CC[C@@H]2[C@@H]1CC2(C)C [(-)-caryophyllene oxide]", "Average response", 0.00),
    ("CCCCCOC(C)=O [pentyl acetate]", "Average response", 0.76),
    ("CCCOC(C)=O [propyl acetate]", "Average response", 0.33),
    ("C=C1[C@H]2CC[C@@H]3[C@H]2C(C)(C)CCC[C@]13C [(+)-longifolene]", "Average response", 0.0238),
    ("CCCCCC(=O)CC [3-octanone]", "Average response", 0.73),
    ("CCCCC(C)=O [2-hexanone]", "Average response", 0.16),
    ("COc1cccc(OC)c1 [1,3-dimethoxy benzene]", "Average response", 0.0217),
]
